- tested.system: F508delCFTR (Homo sapiens, UniProt P13569, DEL508-508)
- Sequence (P13569 with tags, fused parts or gaps DEL508-508): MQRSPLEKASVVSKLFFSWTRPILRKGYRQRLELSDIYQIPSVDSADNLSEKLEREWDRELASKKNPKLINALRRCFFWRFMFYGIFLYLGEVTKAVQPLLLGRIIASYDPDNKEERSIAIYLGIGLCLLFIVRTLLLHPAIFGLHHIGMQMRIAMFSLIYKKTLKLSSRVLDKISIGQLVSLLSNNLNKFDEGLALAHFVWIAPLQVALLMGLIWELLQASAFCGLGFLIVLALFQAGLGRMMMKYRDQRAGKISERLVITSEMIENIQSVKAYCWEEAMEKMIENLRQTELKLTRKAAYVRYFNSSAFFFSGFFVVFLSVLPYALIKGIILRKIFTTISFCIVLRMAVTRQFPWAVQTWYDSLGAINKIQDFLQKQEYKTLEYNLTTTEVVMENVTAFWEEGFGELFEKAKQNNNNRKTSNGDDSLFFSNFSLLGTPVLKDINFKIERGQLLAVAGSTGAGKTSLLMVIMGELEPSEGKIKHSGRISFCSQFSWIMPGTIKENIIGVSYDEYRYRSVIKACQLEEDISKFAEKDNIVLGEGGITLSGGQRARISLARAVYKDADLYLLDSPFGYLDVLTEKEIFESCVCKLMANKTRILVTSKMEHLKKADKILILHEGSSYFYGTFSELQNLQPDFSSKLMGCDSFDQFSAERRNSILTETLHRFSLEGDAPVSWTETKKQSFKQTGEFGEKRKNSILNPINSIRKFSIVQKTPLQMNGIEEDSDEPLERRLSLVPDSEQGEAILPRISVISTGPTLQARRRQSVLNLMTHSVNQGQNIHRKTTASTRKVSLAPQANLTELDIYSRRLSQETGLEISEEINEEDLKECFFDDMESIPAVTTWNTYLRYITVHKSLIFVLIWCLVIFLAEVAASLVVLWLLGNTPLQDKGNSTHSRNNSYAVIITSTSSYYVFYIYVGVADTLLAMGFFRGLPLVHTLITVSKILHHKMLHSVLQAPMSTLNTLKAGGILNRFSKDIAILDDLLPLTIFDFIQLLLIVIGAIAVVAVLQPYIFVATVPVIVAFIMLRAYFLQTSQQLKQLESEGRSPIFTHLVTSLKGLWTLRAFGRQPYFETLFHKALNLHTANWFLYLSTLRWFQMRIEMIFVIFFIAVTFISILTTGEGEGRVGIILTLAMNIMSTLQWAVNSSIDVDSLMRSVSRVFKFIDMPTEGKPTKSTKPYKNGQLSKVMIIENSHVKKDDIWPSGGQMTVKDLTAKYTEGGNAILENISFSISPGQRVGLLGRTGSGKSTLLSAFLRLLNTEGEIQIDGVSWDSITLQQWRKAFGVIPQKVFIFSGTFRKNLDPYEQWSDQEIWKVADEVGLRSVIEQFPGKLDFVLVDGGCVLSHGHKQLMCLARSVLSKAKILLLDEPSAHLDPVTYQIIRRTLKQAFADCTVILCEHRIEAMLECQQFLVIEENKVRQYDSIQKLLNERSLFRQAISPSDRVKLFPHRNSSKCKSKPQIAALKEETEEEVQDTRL
- protocol: Cell Surface Expression-Horse Radish Peroxidase (CSE-HRP) assay
- test.parameters: CFBE41o-F508delCFTR-HRP cells, cell surface expression, luminescence readout; 18-24 hours at 33° C.; highest concentration tested 20 μM, 8-point curve
pEC50: −log10 of the molar value.
measured.metric: pEC50

INSERT INTO assay_data (compound, tested_system, observed) VALUES
  ('COC(=O)c1ccc([C@H]2C[C@@H](NC(=O)C3(c4ccc5c(c4)OC(F)(F)O5)CC3)C[C@@H](c3ccccc3)O2)c(C)c1 (racemic)', 'F508delCFTR (Homo sapiens, UniProt P13569, DEL508-508)', 6.06);

a: CCOC(=O)c1cc(C)cc([C@H]2C[C@@H](NC(=O)C3(c4ccc5c(c4)OC(F)(F)O5)CC3)C[C@@H](c3ccccc3)O2)c1 (racemic)
b: O=C(O)c1ccc([C@H]2C[C@@H](NC(=O)C3(c4ccc5c(c4)OC(F)(F)O5)CC3)C[C@@H](c3ccccc3)O2)c(F)c1 (racemic)
Problem: I need your help: which of the pair a , b has higher pEC50? Please indicate the selected item by its label.
Solution: b

# credit: patent US9567322B2
